tested on: MDA-MB-436 Ola^R (BRCA reversion) TNBC cell line; assay: In vitro activity (IC50) in olaparib-resistant MDA-MB-436; format: cell-based; details: Homo sapiens, MDA-MB-436, read-out: In vitro activity (IC50) Olaparib^R (BRCA reversion)
parameter: IC50

> print(dat)
                            molecule.smiles   result
1  Cn1cc(-c2cnn3c(N)c(Br)c([C@@H]4CCCNC4)nc23)cn1  5.97 µM

* * *

system: MDA-MB-436 Ola^R (BRCA reversion) TNBC cell line; assay: In vitro activity (IC50) in olaparib-resistant MDA-MB-436; assay type: cell-based; settings: Homo sapiens; MDA-MB-436 Ola^R; read-out: In vitro activity (IC50) Olaparib^R (BRCA reversion)
The reader will find reported IC50 values listed item by item below.
parameter: IC50 (µM)

> print(dat)
                            molecule.smiles  result.modifier  measured.number
1  C=CCn1c(=O)c2cnc(Nc3ccc(N4CCN(C)CC4)cc3)nc2n1-c1ccc2c(n1)[C@@](O)(CC)CC2                =            0.174
2  NC(=O)c1cccc2cn(-c3ccc([C@@H]4CCCNC4)cc3)nc12                =             7.73
3  O=C(c1cc(Cc2n[nH]c(=O)c3ccccc23)ccc1F)N1CCN(C(=O)C2CC2)CC1                >               10
